Hey, just so you know, these numbers are from PubChem BioAssay (NCATS).

Test system: CP260
experiment_description: qHTS profiling for inhibitors of Plasmodium falciparum proliferation (AID 504749); further: nearly all actives have a fitted effect of over 60% in size
condition_description: P. falciparum in erythrocytes, SYBR Green DNA, 72 h; series mostly up to 28.7 µM
Results filed as inconclusive are left out. The source made the active and inactive calls. The call rests on the fitted dose curve; in most records, active means well fitted inhibition curve with a large enough effect; inconclusive means small, poorly fitted or top-dose-only effect; inactive means flat fitted curve, though single readings scatter.
Classes used: class 1 for active, class 0 for inactive

[
  {
    "compound": "CN1CCN(C2=Nc3cc(F)ccc3Cc3ccccc32)CC1",
    "assigned_class": "class 0"
  },
  {
    "compound": "CN1CCC[C@@H]1CCO[C@](C)(c1ccccc1)c1ccc(Cl)cc1",
    "assigned_class": "class 0"
  },
  {
    "compound": "Cc1cc2c(OCC(CNC(C)(C)C)OC(=O)c3ccccc3)cccc2[nH]1 (stereo unspecified)",
    "assigned_class": "class 1"
  },
  {
    "compound": "O=C(O)C(Cc1cc(I)c(O)c(I)c1)c1ccccc1 (stereo unspecified)",
    "assigned_class": "class 0"
  },
  {
    "compound": "CC[C@H](c1ccc(O)cc1)[C@@H](CC)c1ccc(O)cc1",
    "assigned_class": "class 0"
  },
  {
    "compound": "Cn1c(=O)c2[nH]c(Br)nc2n(C)c1=O",
    "assigned_class": "class 0"
  }
]

* * *

study_system: Phospholipid hydroperoxide glutathione peroxidase GPX4 (Homo sapiens) (UniProt P36969)
Sequence (P36969 whole entry, looked up): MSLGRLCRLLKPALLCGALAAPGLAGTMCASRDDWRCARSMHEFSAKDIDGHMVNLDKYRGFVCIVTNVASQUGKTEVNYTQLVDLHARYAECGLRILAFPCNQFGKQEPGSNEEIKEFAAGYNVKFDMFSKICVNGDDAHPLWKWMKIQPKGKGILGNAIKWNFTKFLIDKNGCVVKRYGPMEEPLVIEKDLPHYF
experiment_description: Primary qHTS Assay for Inhibitors of Recombinant Selenoprotein Glutathione Peroxidase 4 (GPX4) (AID 1845192); further: nearly all actives have a fitted effect of over 65% in size
condition_description: recombinant GPX4, GR-coupled NADPH fluorescence, 15 min; series mostly up to 50 µM
Records with an inconclusive call do not appear. The source made the active and inactive calls. The call rests on the fitted dose curve; in most records, active means well fitted inhibition curve with a large enough effect; inconclusive means small, poorly fitted or top-dose-only effect; inactive means flat fitted curve, though single readings scatter.

[
  {
    "molecule": "C=CCN1CCc2nc(N)sc2CC1",
    "outcome": "inactive"
  },
  {
    "molecule": "CCCCN1C[C@H](O)[C@@H](O)[C@H](O)[C@H]1CO",
    "outcome": "inactive"
  },
  {
    "molecule": "O=C(Nc1ccccc1)OCC(CN1CCCCC1)OC(=O)Nc1ccccc1 (stereo not drawn)",
    "outcome": "inactive"
  },
  {
    "molecule": "CC(C(=O)O)c1cccc(Oc2ccccc2)c1 (stereo not drawn)",
    "outcome": "inactive"
  },
  {
    "molecule": "CCOc1ccccc1OCCN[C@H](C)Cc1ccc(OC)c(S(N)(=O)=O)c1",
    "outcome": "inactive"
  },
  {
    "molecule": "CC(O)Cn1cnc2c1c(=O)n(C)c(=O)n2C (stereo not drawn)",
    "outcome": "inactive"
  },
  {
    "molecule": "CC(=O)Nc1ccc(S(=O)(=O)Nc2ccc([N+](=O)[O-])cc2)cc1",
    "outcome": "inactive"
  },
  {
    "molecule": "CC(=O)O[C@H]1C[C@@H]2CC[C@@H]3[C@H](CC[C@@]4(C)[C@H]3C[C@H]([N+]3(C)CCCCC3)[C@@H]4OC(C)=O)[C@@]2(C)C[C@@H]1N1CCCCC1",
    "outcome": "inactive"
  },
  {
    "molecule": "Cc1ccccc1OCC(O)CO (stereo not drawn)",
    "outcome": "inactive"
  },
  {
    "molecule": "NS(=O)(=O)c1cc(C(=O)O)cc(N2CCCC2)c1Oc1ccccc1",
    "outcome": "inactive"
  },
  {
    "molecule": "OC[C@H]1O[C@@H](Oc2ccc(O)cc2)[C@H](O)[C@@H](O)[C@@H]1O",
    "outcome": "inactive"
  },
  {
    "molecule": "CC(CNC1CCCCC1)OC(=O)c1ccccc1 (stereo not drawn)",
    "outcome": "inactive"
  },
  {
    "molecule": "CC(=O)OCC1=C(C(=O)O)N2C(=O)[C@@H](NC(=O)CSc3ccncc3)[C@H]2SC1",
    "outcome": "inactive"
  },
  {
    "molecule": "C/C=C/c1ccc(O)c(OC)c1",
    "outcome": "inactive"
  },
  {
    "molecule": "CCN1CCN(C(=O)N[C@@H](C(=O)N[C@@H]2C(=O)N3C(C(=O)O)=C(CSc4nnnn4C)CS[C@H]23)c2ccc(O)cc2)C(=O)C1=O",
    "outcome": "inactive"
  },
  {
    "molecule": "Nc1ccc(C(=O)NCC(=O)O)cc1",
    "outcome": "inactive"
  },
  {
    "molecule": "OC1C(O)C(O)C(O)C(O)C1O (stereo not drawn)",
    "outcome": "inactive"
  },
  {
    "molecule": "CCN1CCCC(OC(=O)C(c2ccccc2)c2ccccc2)C1 (stereo not drawn)",
    "outcome": "inactive"
  }
]

* * *

Below, each entry is listed with its recorded max response.
Tested on: NIH3T3
experiment_description: Cytotoxic Profiling of Annotated Libraries Using Quantitative High-Throughput Screening (AID 1296008); further: on the % scale 0 is the no-effect control and ±100 the full control effect; nearly all actives have a fitted effect of over 60% in size
condition_description: Five cell lines viability, CellTiter-Glo ATP luminescence, 48-72 h; stronger effect = lower value
Results filed as inconclusive are left out.

[
  {
    "molecule": "COc1ccc2c(c1)c1c3n2CCN(C)C3=NCC1",
    "max response / %": 0.478
  },
  {
    "molecule": "CCOC(=O)C(C#N)=C(c1ccccc1)c1ccccc1",
    "max response / %": 3.96
  },
  {
    "molecule": "Clc1cccc(C(c2ccc3nc[nH]c3c2)n2ccnc2)c1 (stereo unspecified)",
    "max response / %": -0.487
  },
  {
    "molecule": "CC(C)Cn1cnc2c1c(=O)n(C)c(=O)n2C",
    "max response / %": 1.58
  },
  {
    "molecule": "C[N+]1(C)CCC(=C(c2ccccc2)c2ccccc2)CC1",
    "max response / %": -1.38
  },
  {
    "molecule": "NCCNC(=O)c1ccc(Cl)cn1",
    "max response / %": 2.21
  },
  {
    "molecule": "CC(C)(Cc1c[nH]c2ccccc12)NCC(O)COc1ccccc1C#N (stereo unspecified)",
    "max response / %": -8.73
  },
  {
    "molecule": "CCCCC(CC)CN1CN(CC(CC)CCCC)CC(C)(N)C1 (stereo unspecified)",
    "max response / %": -12.8
  },
  {
    "molecule": "CCN[C@@H]1C[C@H](N)[C@@H](OC2OC(CN)=CCC2N)[C@H](O)[C@H]1O[C@H]1OC[C@](C)(O)[C@H](NC)[C@H]1O (stereo partly specified)",
    "max response / %": -0.0944
  },
  {
    "molecule": "CC[N+](C)(CC)CCOC(=O)C(O)(c1ccccc1)C1CCCCC1 (stereo unspecified)",
    "max response / %": -5.74
  },
  {
    "molecule": "CCN(CC)CCNC(=O)c1cc(Br)c(N)cc1OC",
    "max response / %": -9.42
  }
]

* * *

Test system: CP217
experiment_description: qHTS profiling for inhibitors of Plasmodium falciparum proliferation (AID 504749); further: nearly all actives have a fitted effect of over 60% in size
condition_description: P. falciparum in erythrocytes, SYBR Green DNA, 72 h; series mostly up to 28.7 µM
Results filed as inconclusive are left out. Activity calls are given as the source filed them. Calls come from the whole dose curve; as a rule, active = well fitted inhibition curve with a large enough effect; inconclusive = small, poorly fitted or top-dose-only effect; inactive = flat fitted curve, though single readings scatter.
Classes used: TRUE = active, FALSE = inactive

[
  {
    "molecule": "CCCCCCCCOc1ccc(C(=O)c2ccccc2)c(O)c1",
    "assigned_class": "FALSE"
  },
  {
    "molecule": "CCCCN=C(N)N=C(N)N",
    "assigned_class": "FALSE"
  },
  {
    "molecule": "CN(CCCN1c2ccccc2CCc2ccccc21)CC(=O)c1ccc(Cl)cc1",
    "assigned_class": "TRUE"
  },
  {
    "molecule": "CC(=O)Nc1ccc(S(=O)(=O)Nc2ccc([N+](=O)[O-])cc2)cc1",
    "assigned_class": "FALSE"
  },
  {
    "molecule": "CCC(CC)(CC(=O)Nc1cccc(/C=C/c2nc(C3CCC3)cs2)c1)C(=O)O",
    "assigned_class": "FALSE"
  },
  {
    "molecule": "C=C[C@@]1(C)CC(=O)[C@]2(O)[C@@]3(C)[C@@H](O)CCC(C)(C)[C@@H]3[C@H](O)[C@H](OC(C)=O)[C@@]2(C)O1",
    "assigned_class": "FALSE"
  },
  {
    "molecule": "CC(=O)Oc1ccc(C)cc1",
    "assigned_class": "FALSE"
  },
  {
    "molecule": "O=C(O)CCNC(=O)c1ccccc1",
    "assigned_class": "FALSE"
  },
  {
    "molecule": "Cc1cccc(C)c1NC(=O)c1ccccc1C(=O)O",
    "assigned_class": "FALSE"
  },
  {
    "molecule": "NCCNC(=O)c1ccc(Cl)cn1",
    "assigned_class": "FALSE"
  },
  {
    "molecule": "O=C(NCCc1c[nH]c2ccccc12)c1cccnc1",
    "assigned_class": "FALSE"
  },
  {
    "molecule": "O=S(=O)(O)c1ccc(O)cc1",
    "assigned_class": "FALSE"
  },
  {
    "molecule": "Cc1ccccc1OCC(O)CO (stereo not drawn)",
    "assigned_class": "FALSE"
  }
]
